- Recorded conditions: pH 7.4
Assay metric: logD

(1) C[C@@H]1COCCN1c1cc(C2(S(C)(=O)=O)CC2)nc(-c2cccc3[nH]ccc23)n1
(2) N#CC1(NC(=O)[C@@H]2CCCC[C@H]2C(=O)N2CCN(c3nc4ccncc4s3)CC2)CC1
Query: // compare measured logD, left 1 , right 2 , return larger Indicate your choice by writing its label.
Reply: 1

----------
- Recorded conditions: pH 7.4
Assay metric: logD

Please review the entries below; each comes with its answer.
# Compound, logD
data = [
    ("CS(=O)(=O)Cc1cc(N2CCOCC2)nc(-c2cccc3[nH]ccc23)n1", 1.7),
    ("COc1ccc(N2CCN(C(=O)[C@@H]3CCCC[C@H]3C(=O)NCC#N)CC2)cc1", 1.6),
]

(A) Cc1cc(COc2cnc(N3CCN(C(=O)OC(C)(C)C)CC3)nc2)ccn1
(B) Cc1nc2nc(NC(=O)c3ccc(F)cc3)[nH]n2c(=O)c1Cc1ccccc1
(C) Cc1nc2nc[nH]n2c(=O)c1CCOC(=O)c1ccccc1F
(D) N#CC1(NC(=O)[C@@H]2CCCC[C@H]2C(=O)N2CCN(c3nc4c(s3)COCC4)CC2)CC1
Query: Please give the order of these compounds when sorted by logD, largest value leading. Provide the ranking by listing each label in its place in the requested order.
Reply: A, B, D, C
(A: 3.7, B: 2.2, D: 1.42, C: 0.99)

----------
- Recorded conditions: pH 7.4
Assay metric: logD

Sample answers from the record:
# Compound, logD
data = [
    ("COc1cc(OC)c(S(=O)(=O)N2c3ccccc3CCC2C)cc1NC(C)=O (stereo not drawn)", 1.97),
    ("CC(C)(C)OC(=O)N1CCN(c2ccc(OCc3ccc(S(C)(=O)=O)cc3)cc2)CC1", 3.9),
    ("COc1ccc(N(C(=O)c2ccccc2)C(C(=O)NC2CCCC2)c2ccccc2F)c(OC)c1 (stereo not drawn)", 3.86),
    ("CC(=O)c1ncccc1NC(=O)C1CCC(N2C(=O)[C@@H]3[C@@H]4CC[C@@H](C4)[C@@H]3C2=O)CC1 (stereo partly drawn)", 3.01),
    ("Nc1ccccc1NC(=O)c1ccc(N2CCOCC2)cc1", 1.2),
    ("N#Cc1cccnc1-c1ccc(C(=O)Nc2ccccc2N)cc1", 1.58),
    ("CS(=O)(=O)c1cccc(Nc2nccc(Nc3c(Cl)ccc4c3OCO4)n2)c1", 3.13),
    ("COc1ccc(N2CCN(C(=O)[C@@H]3CCCC[C@H]3C(=O)NC3(C#N)CC3)CC2)cc1OC", 1.4),
    ("COc1ccc(N2CCN(C(=O)[C@@H]3CCCC[C@H]3C(=O)NC3(C#N)CC3)[C@H](C)C2)cc1OC", 1.85),
    ("Cc1nn(C)c2ccc(N3CCN(C(=O)[C@@H]4CCCC[C@H]4C(=O)NC4(C#N)CC4)[C@H](C)C3)cc12", 2.8),
]

(P) Cc1noc2cc(N3CCN(C(=O)[C@@H]4CCCC[C@H]4C(=O)NC4(C#N)CC4)[C@H](C)C3)ccc12
(Q) CS(=O)(=O)c1ccc2nc(N3CCN(C(=O)[C@@H]4CCCC[C@H]4C(=O)NC4(C#N)CC4)CC3)sc2c1
Query: Of P and Q , which shows the smaller logD value? Please reply using the label of the selected record.
Reply: Q
